This collection of values is drawn from ChEMBL document CHEMBL4823247.

- Species: Sus scrofa
- MEASUREMENT DESCRIPTION: Binding affinity to pig pancreatic lipase type 2 assessed as binding constant at 32 degC measured after 1 min by Stern-Volmer plot analysis
Attribute: Ka

// solved cases for Ka follow
COMPOUND: COc1ccc(-c2coc3c(Br)c(O)ccc3c2=O)cc1
Ka: 8.47 10^4L/mol
--
COMPOUND: O=c1c(-c2cc(Br)c(O)c(Br)c2)coc2c(Br)c(O)ccc12
Ka: 1.99 10^4L/mol
--
COMPOUND: O=c1c(-c2ccc(O)cc2)coc2cc(O)cc(O)c12 [GENISTEIN]
Ka: 0.87 10^4L/mol
--
COMPOUND: O=c1c(-c2ccc(O)cc2)coc2cc(O)ccc12 [DAIDZEIN]
Ka: 1.2 10^4L/mol

What does the data say about its Ka? Entry: COc1ccc(-c2coc3cc(O)ccc3c2=O)cc1 [FORMONONETIN] 0.22 10^4L/mol

====

Here, each record is paired with measured KSV data.
- Species on record: Sus scrofa
- MEASUREMENT DESCRIPTION: Binding affinity to pig pancreatic lipase type 2 assessed as Stern-Volmer quenching constant at 37 degC measured after 1 min by Stern-Volmer plot analysis

SMILES: O=c1c(-c2cc(Br)c(O)c(Br)c2)coc2c(Br)c(O)ccc12
KSV: 1.11 10^4L/mol

What value of KSV has been reported for the following compound? `COc1ccc(-c2coc3c(Br)c(O)ccc3c2=O)cc1` 2.29 10^4L/mol

====

Measured KSV accompanies every entry in the list below.
- Species: Sus scrofa
- MEASUREMENT DESCRIPTION: Binding affinity to pig pancreatic lipase type 2 assessed as Stern-Volmer quenching constant at 37 degC measured after 1 min by Stern-Volmer plot analysis

Some entries whose results are on file:
COMPOUND: COc1ccc(-c2coc3cc(O)ccc3c2=O)cc1 [FORMONONETIN]
OBS VALUE: 1.06 10^4L/mol
//
COMPOUND: O=c1c(-c2ccc(O)cc2)coc2cc(O)cc(O)c12 [GENISTEIN]
OBS VALUE: 1.07 10^4L/mol

Now look at this entry.
If you can, please state the reported KSV value of O=c1c(-c2ccc(O)cc2)coc2cc(O)ccc12 [DAIDZEIN] . 4.08 10^4L/mol
